Cited source for all entries: patent US9340554B2

- experimentalTarget: IRAK4 (Homo sapiens, UniProt Q9NWZ3)
- Construct: purchased CARNA Bioscience 09-145
- assayComment: IRAK-4 activity inhibition assay (Caliper, Peptide 8, 37 μM ATP)
- Type: biochemical
- cond: 3.5 nM IRAK4, 1.5 μM Peptide 8, 37 μM ATP, 28° C. 40 minutes; read-out: IRAK-4 activity inhibition IC50
quantity: IC50

INPUT: Which IC50 is reported for this molecule? C[C@@H]1CCc2sc3ncnc(N[C@H]4CC[C@H](N)CC4)c3c2C1
OUTPUT: < 5 µM

INPUT: So what's the measured IC50 for this one? CN(CCC(N)=O)[C@H]1CC[C@H](Nc2ncnc3sc4c(c23)CCC4)CC1
OUTPUT: < 5 µM

INPUT: IC50 lookup needed for Cc1sc2ncnc(N3CCC(C(=O)NCCc4nnc5ccccn45)CC3)c2c1C , thanks.
OUTPUT: 5 to 20 µM

====

Measured IC50 accompanies every entry in the list below.
- experimentalTarget: IRAK4 (Homo sapiens)
- Construct: purchased CARNA Bioscience 09-145
- Sequence (Q9NWZ3 1-460): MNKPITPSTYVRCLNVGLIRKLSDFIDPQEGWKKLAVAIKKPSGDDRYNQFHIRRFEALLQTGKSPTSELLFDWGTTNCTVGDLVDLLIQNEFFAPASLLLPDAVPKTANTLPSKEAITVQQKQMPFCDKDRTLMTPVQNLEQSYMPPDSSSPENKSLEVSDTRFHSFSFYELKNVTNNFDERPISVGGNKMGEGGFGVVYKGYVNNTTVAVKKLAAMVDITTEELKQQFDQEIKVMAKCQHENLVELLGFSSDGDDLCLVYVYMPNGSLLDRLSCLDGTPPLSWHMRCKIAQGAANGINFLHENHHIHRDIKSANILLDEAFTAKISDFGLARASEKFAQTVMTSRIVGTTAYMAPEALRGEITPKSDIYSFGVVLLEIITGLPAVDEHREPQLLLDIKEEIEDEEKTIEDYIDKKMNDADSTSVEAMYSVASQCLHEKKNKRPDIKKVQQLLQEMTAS
- assayComment: IRAK-4 activity inhibition assay (Caliper, Peptide 8, 37 μM ATP)
- Assay type: biochemical
- cond: 3.5 nM IRAK4, 1.5 μM Peptide 8, 37 μM ATP, 28° C. 40 minutes; read-out: IRAK-4 activity inhibition IC50

Record excerpt, results attached:
INPUT: What does the record list as IC50 for CN(C)C(=O)CN(C)[C@H]1CC[C@H](Nc2ncnc3sc4c(c23)CCC4)CC1 ?
OUTPUT: < 5 µM

INPUT: Param item = OC1CCCC(Nc2ncnc3sc4c(c23)CCC4)C1 (mixture of isomers) ; retrieve measured IC50.
OUTPUT: 5 to 20 µM

INPUT: Looking for the measured IC50 of c1ccc(CCN[C@H]2CC[C@H](Nc3ncnc4sc5c(c34)CCC5)CC2)cc1 , can you help?
OUTPUT: < 5 µM

INPUT: What does the data say about its IC50? Entry: CN(CCc1ccccn1)[C@H]1CC[C@H](Nc2ncnc3sc4c(c23)CCC4)CC1
OUTPUT: < 5 µM

INPUT: Fill blank: measured IC50 of the molecule CN(C(=O)Cc1cccc(Cl)c1)[C@H]1CC[C@H](Nc2ncnc3sc4c(c23)CCC4)CC1 is ____.
OUTPUT: 20 to 50 µM

INPUT: Could you share which IC50 value was measured for N[C@H]1CC[C@H](Oc2ncnc3sc4c(c23)CCC4)CC1 ?
OUTPUT: < 5 µM

INPUT: # IC50 lookup, item c1nc(OCC2CCNCC2)c2c3c(sc2n1)CCC3
OUTPUT: 5 to 20 µM

INPUT: Entry under review: Cc1sc2ncnc(N[C@H]3CC[C@H](O)CC3)c2c1C . Reported IC50?
OUTPUT: 5 to 20 µM

INPUT: Record request: IC50 value, item C[N+](C)([O-])[C@H]1CC[C@H](Nc2ncnc3sc4c(c23)CCC4)CC1
OUTPUT: 20 to 50 µM

INPUT: For the molecule shown here, CCC1CCc2c(sc3ncnc(N[C@H]4CC[C@H](NC)CC4)c23)C1 (some centres unmarked) , give the reported IC50.
OUTPUT: < 5 µM

***
INPUT: Given O=C(NCC(F)(F)F)C1CCN(c2ncnc3sc4c(c23)CCC4)CC1 , state its recorded IC50.
OUTPUT: 20 to 50 µM

INPUT: Which IC50 reading was recorded for the molecule CN(Cc1cccc(CO)c1)[C@H]1CC[C@H](Nc2ncnc3sc4c(c23)CCC4)CC1 ?
OUTPUT: < 5 µM

INPUT: Which IC50 value belongs to CN[C@H]1CC[C@H](Nc2ncnc3sc4c(c23)CCCC4)CC1 ?
OUTPUT: < 5 µM

INPUT: Entry CN1CCC(COc2ncnc3sc4c(c23)CCC4)CC1 : reported IC50 = ?
OUTPUT: 20 to 50 µM

INPUT: Look up IC50 for this molecule: CCC1CCc2c(sc3ncnc(N4CCN(C)CC4)c23)C1 (centres unmarked)
OUTPUT: 5 to 20 µM

INPUT: # query: IC50 of entry CN(CCc1ccccc1)[C@H]1CC[C@H](Nc2ncnc3sc4c(c23)CCC4)CC1
OUTPUT: < 5 µM

INPUT: Look up IC50: CCN(Cc1ccccc1)[C@H]1CC[C@H](Oc2ncnc3sc4c(c23)CCC4)CC1
OUTPUT: < 5 µM

====

- experimentalTarget: IRAK4 (Homo sapiens)
- Construct: purchased CARNA Bioscience 09-145
- Sequence (Q9NWZ3 1-460): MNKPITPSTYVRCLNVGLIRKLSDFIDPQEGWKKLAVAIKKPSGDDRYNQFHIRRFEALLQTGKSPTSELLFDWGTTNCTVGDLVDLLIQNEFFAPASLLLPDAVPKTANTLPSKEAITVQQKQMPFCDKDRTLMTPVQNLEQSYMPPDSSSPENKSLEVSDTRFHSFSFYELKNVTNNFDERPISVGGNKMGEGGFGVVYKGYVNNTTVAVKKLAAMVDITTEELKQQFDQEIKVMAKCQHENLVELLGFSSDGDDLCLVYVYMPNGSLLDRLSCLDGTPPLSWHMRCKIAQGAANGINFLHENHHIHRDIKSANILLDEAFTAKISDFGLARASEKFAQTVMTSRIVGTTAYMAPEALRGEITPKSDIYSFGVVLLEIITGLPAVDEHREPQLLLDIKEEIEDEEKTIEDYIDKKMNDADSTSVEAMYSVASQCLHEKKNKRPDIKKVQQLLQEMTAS
- assayComment: IRAK-4 activity inhibition assay (Caliper, Peptide 8, 37 μM ATP)
- Type: biochemical
- cond: 3.5 nM IRAK4, 1.5 μM Peptide 8, 37 μM ATP, 28° C. 40 minutes; read-out: IRAK-4 activity inhibition IC50
quantity: IC50

INPUT: Entry CCC1CCc2c(sc3ncnc(N4CCC(C(=O)NC)CC4)c23)C1 (stereo not shown) [Compound I-13] , system IRAK4 (Homo sapiens): what IC50 was measured?
OUTPUT: 5 to 20 µM

INPUT: # get_value(readout= IC50, system= IRAK4 (Homo sapiens)) for CN(Cc1ncccc1F)[C@H]1CC[C@H](Nc2ncnc3sc4c(c23)CCC4)CC1 [Compound I-104]
OUTPUT: < 5 µM

Others:
INPUT: Reported IC50 for IRAK4 (Homo sapiens), given CN(Cc1c(F)cccc1Cl)[C@H]1CC[C@H](Nc2ncnc3sc4c(c23)CCC4)CC1 [Compound I-99] ?
OUTPUT: < 5 µM

INPUT: What value of IC50 on IRAK4 (Homo sapiens) does CCC1CCc2c(sc3ncnc(NC4CCN(Cc5ccccc5)CC4)c23)C1 (stereo not shown) [Compound I-20] have?
OUTPUT: 20 to 50 µM

====

- experimentalTarget: IRAK4 (Homo sapiens)
- Construct: purchased CARNA Bioscience 09-145
- assayComment: IRAK-4 activity inhibition assay (Caliper, Peptide 8, 37 μM ATP)
- Format: biochemical
- cond: 3.5 nM IRAK4, 1.5 μM Peptide 8, 37 μM ATP, 28° C. 40 minutes; read-out: IRAK-4 activity inhibition IC50
Below, each entry is listed alongside its reported IC50.

Solved entries (count: 8):
INPUT: State the recorded IC50 for this entry: CN(CCCc1ccccc1)[C@H]1CC[C@H](Oc2ncnc3sc4c(c23)CCC4)CC1
OUTPUT: < 5 µM

INPUT: Query: IC50; subject: NC1CCN(c2ncnc3sc4c(c23)CCC4)CC1
OUTPUT: 20 to 50 µM

INPUT: May I ask what IC50 has been recorded for c1nc(N[C@H]2CC[C@H](N3CCC3)CC2)c2c3c(sc2n1)CCC3 ?
OUTPUT: < 5 µM

INPUT: Endpoint output: IC50 of CN(C(=O)Cc1ccccn1)[C@H]1CC[C@H](Nc2ncnc3sc4c(c23)CCC4)CC1 . Value?
OUTPUT: 20 to 50 µM

INPUT: // query IC50 value for entry CCC1CCc2c(sc3ncnc(N4CCC(C(=O)NO)CC4)c23)C1 (centres unmarked)
OUTPUT: < 5 µM

INPUT: Quick one: IC50 of CN(CC(=O)N1CCCCC1)[C@H]1CC[C@H](Nc2ncnc3sc4c(c23)CCC4)CC1 ?
OUTPUT: < 5 µM

INPUT: Can you look up the measured IC50 of CN(C)[C@H]1CC[C@H](Nc2ncnc3sc4c(c23)CCCC4)CC1 for me?
OUTPUT: < 5 µM

INPUT: If you can, please state the reported IC50 value of NCC1CCN(c2ncnc3sc4c(c23)CCC4)CC1 .
OUTPUT: 5 to 20 µM

Next:
INPUT: So what does the record say about IC50 for CN(Cc1ccncc1)[C@H]1CC[C@H](Nc2ncnc3sc4c(c23)CCC4)CC1 ?
OUTPUT: < 5 µM

INPUT: Need IC50 of CC(C)CN(C)[C@H]1CC[C@H](Nc2ncnc3sc4c(c23)CCC4)CC1 , thanks.
OUTPUT: < 5 µM

INPUT: Find the recorded IC50 belonging to c1ccc(CCCN[C@H]2CC[C@H](Nc3ncnc4sc5c(c34)CCC5)CC2)cc1 and report it.
OUTPUT: < 5 µM

INPUT: Record request: IC50 value, item CCC1CCc2c(sc3ncnc(N[C@H]4CC[C@H](N)CC4)c23)C1 (some centres unmarked)
OUTPUT: < 5 µM

INPUT: Need IC50 of CN(CCc1cccc(Cl)c1)[C@H]1CC[C@H](Nc2ncnc3sc4c(c23)CCC4)CC1 , thanks.
OUTPUT: < 5 µM

INPUT: # query: IC50 of entry O=C(CN[C@H]1CC[C@H](Nc2ncnc3sc4c(c23)CCC4)CC1)N1CCCC1
OUTPUT: < 5 µM
